The compounds listed here are annotated with their melting point.
Readout Type: melting point

>  <Compound>
Cn1nc(Cl)c(C(=O)Cc2ccccc2)c1Cl

>  <Assay Value>
94 to 96 °C

$$$$
>  <Compound>
CCn1c(CCOC(N)=O)nc(C(C)C)c1Sc1cc(Cl)cc(Cl)c1

>  <Assay Value>
161 to 162 °C

$$$$
>  <Compound>
CCCCC/C(=C\C=C\C(=O)O)c1cccc(F)c1

>  <Assay Value>
84 to 85.5 °C

$$$$
>  <Compound>
O=C=Nc1c(Br)cccc1Br

>  <Assay Value>
68 to 70 °C

$$$$
>  <Compound>
CCNC(=O)Nc1ccc(-c2ccc3nnn(Cc4ccc5ncccc5c4)c3n2)cc1

>  <Assay Value>
193 to 196 °C

$$$$
>  <Compound>
CCNC(=O)Nc1nc2cc(-c3cccnc3)cc(N3CCC(O)C3)n2n1 (stereo not given)

>  <Assay Value>
296 to 298 °C

$$$$
>  <Compound>
COC(=O)c1cc(CCC2CNc3nc(NC(=O)C(C)(C)C)nc(O)c3C2)cn1[Si](C(C)C)(C(C)C)C(C)C (stereo not given)

>  <Assay Value>
202 to 204 °C

$$$$
>  <Compound>
CCOC(=O)CC(=O)c1cccc([N+](=O)[O-])c1C

>  <Assay Value>
50 to 51 °C

$$$$
>  <Compound>
CN1C(=O)C(c2cccc(Br)c2)(c2ccc(OC(F)F)c(C3CC3)c2)N=C1N (stereo not given)

>  <Assay Value>
85 to 87 °C

$$$$
>  <Compound>
C=CCCCCCCCCCN1C(=O)c2ccccc2C1=O

>  <Assay Value>
25 to 30 °C

$$$$

----------
>  <Compound>
CCOc1cc(COc2nn(Cc3ccccc3)cc2CO)ccc1OCc1nc(-c2ccco2)oc1C

>  <melting point>
137 to 138 °C

$$$$
>  <Compound>
c1ccc2nc(COc3ccc(NC4CCCC4)cc3)ccc2c1

>  <melting point>
88 °C

$$$$
>  <Compound>
O=C(CCNc1c(C(=O)O)[nH]c2cc(Cl)cc(Cl)c12)c1ccc(Cl)cc1

>  <melting point>
279 to 283 °C

$$$$
>  <Compound>
Nc1ccc([N+](=O)[O-])cc1OCCO

>  <melting point>
140 to 142 °C

$$$$
>  <Compound>
C[C@H]1CCCC(C)(C)[C@@H]1[C@H](O)c1cccc(C#N)c1

>  <melting point>
105 to 107 °C

$$$$
>  <Compound>
NC(=O)Cc1ccc2noc(-c3ccc(Cl)cc3)c2c1

>  <melting point>
242 to 244 °C

$$$$
>  <Compound>
COc1cc(N2CCCN(C)CC2)ccc1Nc1ncc2ccc(-c3ccccc3OC)n2n1

>  <melting point>
69 to 77 °C

$$$$
>  <Compound>
Cc1c(NC(=O)c2ccc(OC[C@@H]3CCCO3)cc2F)ccc2c1cc(CNCC(C)(C)O)n2C

>  <melting point>
118 °C

$$$$
>  <Compound>
CC12CCC3C(CCC4C(O)CCCC43C)C1CCC2OC1CCCCO1 (stereo not given)

>  <melting point>
167 to 170 °C

$$$$
>  <Compound>
COC(=O)c1cc([N+](=O)[O-])cc([N+](=O)[O-])c1SCc1ccccc1

>  <melting point>
113 to 114 °C

$$$$
>  <Compound>
O=C(NCc1ccc(Cl)cc1)c1cn2c(CO)cc3cc(CC4CCOCC4)cc(c1=O)c32

>  <melting point>
71 to 74 °C

$$$$
>  <Compound>
CC(=O)N[C@@H](Cc1ccc(Oc2sc(C(N)=O)c3c2-c2c(cnn2C)CC3)cc1)C(=O)N1CCOCC1

>  <melting point>
139 to 140 °C

$$$$
>  <Compound>
Cc1cccc(C2(Cn3cncn3)OCCO2)c1

>  <melting point>
105 °C

$$$$
>  <Compound>
O=C(O)/C=C/c1ccc(/C=C/c2ccncc2)nc1

>  <melting point>
> 250 °C

$$$$
>  <Compound>
CCCc1nc2c(N)nc3cc(OCCOCc4ccccc4)ccc3c2s1

>  <melting point>
142 to 145 °C

$$$$
>  <Compound>
O=C(O)CCCNC(=O)[C@@H](Cc1ccccc1)C[C@H](Cc1ccccc1)C(=O)O (relative stereo)

>  <melting point>
127 to 129 °C

$$$$
>  <Compound>
CCN(C)C(=O)[C@H]1O[C@@H](n2cnc3c(N)ncnc32)[C@H](O)[C@@H]1O

>  <melting point>
86 to 90 °C

$$$$
>  <Compound>
O=[N+]([O-])c1cccc(OCc2ccccc2)c1Cl

>  <melting point>
94 °C

$$$$
>  <Compound>
COc1cc(Nc2nccc(-c3ccc(OCCCN)cc3)n2)cc(OC)c1OC

>  <melting point>
161 to 162 °C

$$$$
>  <Compound>
c1csc(-c2ccc(-c3cccs3)nc2)c1

>  <melting point>
150 °C

$$$$
